Recorded IC50 values for a group of compounds are listed next.
- Tested System: WT HIV-1 RT (Human immunodeficiency virus type 1 group M subtype B)
Value Type: IC50 (nM)

>>> numeric_value("Cc1cc(C#N)cc(C)c1Oc1nc(Nc2ccc(NC(=O)[C@H](N)CC(C)C)cc2)nc2ccsc12")
2390
>>> numeric_value("Cc1cc(C#N)cc(C)c1Oc1nc(Nc2ccc(NC(=O)[C@@H](N)C(C)C)cc2)nc2ccsc12")
1350
>>> numeric_value("Cc1cc(C#N)cc(C)c1Oc1nc(Nc2ccc(NC(=O)[C@@H](N)Cc3c[nH]cn3)cc2)nc2ccsc12")
927
>>> numeric_value("Cc1cc(C#N)cc(C)c1Oc1nc(Nc2ccc(NC(=O)C3CC(O)CN3)cc2)nc2ccsc12 (stereo not drawn)")
1710
>>> numeric_value("Cc1cc(C#N)cc(C)c1Oc1nc(Nc2ccc(NC(=O)[C@@H](N)Cc3ccccc3)cc2)nc2ccsc12")
1540
>>> numeric_value("Cc1cc(C#N)cc(C)c1Oc1nc(Nc2ccc(NC(=O)C3CCCN3)cc2)nc2ccsc12 (stereo not drawn)")
1120

These data points were gathered from paper PMC11354745.
